Below, each entry is listed alongside its reported max response.
System: HaCat
PROTOCOL: Cytotoxic Profiling of Annotated Libraries Using Quantitative High-Throughput Screening (AID 1296008); further: on the % scale 0 is the no-effect control and ±100 the full control effect; nearly all actives have a fitted effect of over 60% in size
STUDY_CONDITIONS: Five cell lines viability, CellTiter-Glo ATP luminescence, 48-72 h; hits give low values
Results filed as inconclusive are left out.
ASSAY_ENDPOINT: max response (%)

compound=CC(C)[C@@H]1C(=O)N(S(C)(=O)=O)[C@@H]2CCN(C(=O)/C=C/CN3CCCCC3)[C@H]21 unit_symbol=% observed_measurement=-0.855
compound=O=C(NCc1cccc(O)c1)c1cc2cc(F)ccc2[nH]1 unit_symbol=% observed_measurement=-7.37
compound=COCCOc1cnc2ccn([C@H](C)c3nnc4c(F)cc(-c5cnn(C)c5)cn34)c(=O)c2c1 unit_symbol=% observed_measurement=4.9
compound=OC[C@H]1O[C@@H](OCCc2ccccc2)[C@H](O[C@@H]2OC[C@](O)(CO)[C@H]2O)[C@@H](O)[C@@H]1O unit_symbol=% observed_measurement=0.135
compound=Cn1c2ccc(F)cc2c2c(C(=O)N3CCCC3)cn(-c3ccccc3)c(=O)c21 unit_symbol=% observed_measurement=-0.557
compound=CC1=CC(=O)CC(C)(C)[C@@]1(O)CC[C@@H](C)O[C@@H]1O[C@H](CO)[C@@H](O)[C@H](O)[C@H]1O unit_symbol=% observed_measurement=-28.9
compound="CC1=C(CCC(C)O[C@@H]2O[C@H](CO)[C@@H](O)[C@H](O)[C@H]2O)C(C)(C)CCC1=O (some centres undefined)" unit_symbol=% observed_measurement=-0.525
compound="CC/C=C\\CC1C(=O)C=CC1(CCCCCCCC(=O)O)OC(C)=O (centres undefined)" unit_symbol=% observed_measurement=3.46
compound="CC1(C(=O)O)CCCC2(C)C3CCC4CC3(CCC12)CC4=O (centres undefined)" unit_symbol=% observed_measurement=2.83
compound="OCC(CO[C@@H]1O[C@H](CO)[C@@H](O)[C@H](O)[C@H]1O)c1ccc2c(c1)OCO2 (some centres undefined)" unit_symbol=% observed_measurement=1.18
compound=COc1ccc(/C=C/C(=O)O[C@H]2[C@H](O[C@H]3[C@@H]4C=CO[C@@H](O[C@@H]5O[C@H](CO)[C@@H](O)[C@H](O)[C@H]5O)[C@@H]4[C@@]4(CO)O[C@@H]34)O[C@@H](C)[C@H](O)[C@H]2OC(C)=O)cc1 unit_symbol=% observed_measurement=2.92
compound="CC(C)CC1NC(=O)C(C)NC(=O)C(CC(C)C)OC(=O)CCCNC1=O (centres undefined)" unit_symbol=% observed_measurement=-8.69
compound="C/C=C(\\C)C(=O)O[C@@H]1CC2[C@@H](CC=C3C[C@@H](O[C@H]4C[C@H](OC)[C@H](O[C@H]5C[C@H](OC)[C@H](O[C@@H]6O[C@H](C)[C@@H](O[C@H]7C[C@H](OC)[C@H](O[C@@H]8O[C@H](CO)[C@@H](O)[C@H](O)[C@H]8O)[C@@H](C)O7)[C@H](OC)[C@H]6O)[C@@H](C)O5)[C@@H](C)O4)CC[C@@]32C)[C@@]2(O)CC[C@H](C(C)=O)[C@@]12C (some centres undefined)" unit_symbol=% observed_measurement=-4.54
compound=C=C[C@H]1[C@H](O[C@@H]2O[C@H](CO)[C@@H](O)[C@H](O)[C@H]2O)OC=C(C(=O)OC)[C@H]1C/C=C(/C=O)[C@@H]1C(C(=O)OC)=CO[C@@H](O[C@@H]2O[C@H](CO)[C@@H](O)[C@H](O)[C@H]2O)[C@@H]1C=C unit_symbol=% observed_measurement=-4.96

These entries and their values trace back to PubChem BioAssay (NCATS).
